The measurements presented in this section are drawn from patent US5573999A.

Would you kindly list % inhibition of respiration at 1.8 × 10^-5 mol/l test substance, Drechslera sorokiniana for each of these compounds?
- Test system: mitochondrial respiration
- Procedure Summary: Inhibition of mitochondrial respiration (rate of reduction of cytochrome c in isolated mitochondria), phytopathogenic fungus
- Format: biochemical, Drechslera sorokiniana
- Condition Context: DMSO control
Could you give me the number in %? Just the number is fine.

Notebook: COC(=O)/C=C(/OC)c1ccccc1/C=C/c1ccccc1[N+](=O)[O-] [Compound 1a.238] , % inhibition of respiration at 1.8 × 10^-5 mol/l test substance, Drechslera sorokiniana read as 74

Notebook: COC(=O)/C=C(/OC)c1ccccc1COc1cccc(C=NOCc2ccccc2Cl)c1 [Compound 1a.64] , % inhibition of respiration at 1.8 × 10^-5 mol/l test substance, Drechslera sorokiniana read as 98

Notebook: COC(=O)/C=C(/OC)c1ccccc1/C=C\c1ccc(-c2ccccc2)cc1 [Compound 1a.269] , % inhibition of respiration at 1.8 × 10^-5 mol/l test substance, Drechslera sorokiniana read as 81
